The reported numbers originate from patent US9057727B2.

Exercise: state measured screen cAMP (% parent) for each of the substances provided.
System: LLCPK1-B64 cells or SaOS-2 cells
Experiment: cAMP screen of substituted PTHrP(1-28) analogs (% parent)
Type: cell-based
Settings: parent PTHrP(1-28)NH
Ends that are not written are not given here.
Report only the number, with the unit % parent understood.

Request: If you can, please state the reported screen cAMP (% parent) value of E18,L22,A26-PTHrP(1-28) (AVSEHQLLHDKGKSIQDERRRLFLHALI-NH2) [E18, L22, A26-PTHrP(1-28)NH] .
Result: 139

Request: If you can, please state the reported screen cAMP (% parent) value of A18,22,W25,K26-PTHrP(1-28) (AVSEHQLLHDKGKSIQDARRRAFLWKLI-NH2) [A18, 22, W25, K26-PTHrP(1-28)NH] .
Result: 329

Request: If you can, please state the reported screen cAMP (% parent) value of K26-PTHrP(1-28) (AVSEHQLLHDKGKSIQDLRRRFFLHKLI-NH2) [K26-PTHrP(1-28)NH] .
Result: 142

Request: If you can, please state the reported screen cAMP (% parent) value of A22-PTHrP(1-28) (AVSEHQLLHDKGKSIQDLRRRAFLHHLI-NH2) [A22-PTHrP(1-28)NH] .
Result: 185

Request: If you can, please state the reported screen cAMP (% parent) value of R25-PTHrP(1-28) (AVSEHQLLHDKGKSIQDLRRRFFLRHLI-NH2) [R25-PTHrP(1-28)NH] .
Result: 204

Request: If you can, please state the reported screen cAMP (% parent) value of AVSEHQLLHDKGKSIQDERRRAFLKKLI [E18, A22, K25, 26-PTHrP(1-28)NH, E18,A22,K25,26-PTHrP(1-28)] .
Result: 323

Request: If you can, please state the reported screen cAMP (% parent) value of A18,N22,K26-PTHrP(1-28) (AVSEHQLLHDKGKSIQDARRRNFLHKLI-NH2) [A18, N22, K26-PTHrP(1-28)NH] .
Result: 326

Request: If you can, please state the reported screen cAMP (% parent) value of E18,N22,K26-PTHrP(1-28) (AVSEHQLLHDKGKSIQDERRRNFLHKLI-NH2) [E18, N22, K26-PTHrP(1-28)NH] .
Result: 236

Request: If you can, please state the reported screen cAMP (% parent) value of M18-PTHrP(1-28) (AVSEHQLLHDKGKSIQDMRRRFFLHHLI-NH2) [M18-PTHrP(1-28)NH] .
Result: 113

Request: If you can, please state the reported screen cAMP (% parent) value of S18-PTHrP(1-28) (AVSEHQLLHDKGKSIQDSRRRFFLHHLI-NH2) [S18-PTHrP(1-28)NH] .
Result: 121

Request: If you can, please state the reported screen cAMP (% parent) value of K25-PTHrP(1-28) (AVSEHQLLHDKGKSIQDLRRRFFLKHLI-NH2) [K25-PTHrP(1-28)NH] .
Result: 163

Request: If you can, please state the reported screen cAMP (% parent) value of A18,26,N22-PTHrP(1-28) (AVSEHQLLHDKGKSIQDARRRNFLHALI-NH2) [A18, 26, N22-PTHrP(1-28)NH] .
Result: 265

Request: If you can, please state the reported screen cAMP (% parent) value of AVSEHQLLHDKGKSIQDARRRSFLHKLI [A18, S22, K26-PTHrP(1-28)NH, A18,S22,K26-PTHrP(1-28)] .
Result: 372

Request: If you can, please state the reported screen cAMP (% parent) value of S26-PTHrP(1-28) (AVSEHQLLHDKGKSIQDLRRRFFLHSLI-NH2) [S26-PTHrP(1-28)NH] .
Result: 107

Request: If you can, please state the reported screen cAMP (% parent) value of E18,K22,26-PTHrP(1-28) (AVSEHQLLHDKGKSIQDERRRKFLHKLI-NH2) [E18, K22, 26-PTHrP(1-28)NH] .
Result: 374

* * *

Tested on: LLCPK1-B64 cells or SaOS-2 cells
Assay: cAMP screen of substituted PTHrP(1-28) analogs (% parent)
Type: cell-based
Conditions: parent PTHrP(1-28)NH
Ends that are not written are not given here.
Exercise: state measured screen cAMP (% parent) for each of the substances provided.
Report only the number, with the unit % parent understood.

Request: If you can, please state the reported screen cAMP (% parent) value of E18,W22,A26-PTHrP(1-28) (AVSEHQLLHDKGKSIQDERRRWFLHALI-NH2) [E18, W22, A26-PTHrP(1-28)NH] .
Result: 75

Request: If you can, please state the reported screen cAMP (% parent) value of F18-PTHrP(1-28) (AVSEHQLLHDKGKSIQDFRRRFFLHHLI-NH2) [F18-PTHrP(1-28)NH] .
Result: 109

Request: If you can, please state the reported screen cAMP (% parent) value of E22-PTHrP(1-28) (AVSEHQLLHDKGKSIQDLRRREFLHHLI-NH2) [E22-PTHrP(1-28)NH] .
Result: 121

Request: If you can, please state the reported screen cAMP (% parent) value of W25-PTHrP(1-28) (AVSEHQLLHDKGKSIQDLRRRFFLWHLI-NH2) [W25-PTHrP(1-28)NH] .
Result: 270

Request: If you can, please state the reported screen cAMP (% parent) value of E18,W22,K26-PTHrP(1-28) (AVSEHQLLHDKGKSIQDERRRWFLHKLI-NH2) [E18, W22, K26-PTHrP(1-28)NH] .
Result: 165

Request: If you can, please state the reported screen cAMP (% parent) value of N22-PTHrP(1-28) (AVSEHQLLHDKGKSIQDLRRRNFLHHLI-NH2) [N22-PTHrP(1-28)NH] .
Result: 138

Request: If you can, please state the reported screen cAMP (% parent) value of S22-PTHrP(1-28) (AVSEHQLLHDKGKSIQDLRRRSFLHHLI-NH2) [S22-PTHrP(1-28)NH] .
Result: 141

Request: If you can, please state the reported screen cAMP (% parent) value of AVSEHQLLHDKGKSIQDARRRAFLKKLI [A18, 22, K25, 26-PTHrP(1-28)NH, A18,22,K25,26-PTHrP(1-28)] .
Result: 349

Request: If you can, please state the reported screen cAMP (% parent) value of N26-PTHrP(1-28) (AVSEHQLLHDKGKSIQDLRRRFFLHNLI-NH2) [N26-PTHrP(1-28)NH] .
Result: 113

Request: If you can, please state the reported screen cAMP (% parent) value of E18,S22,A26-PTHrP(1-28) (AVSEHQLLHDKGKSIQDERRRSFLHALI-NH2) [E18, S22, A26-PTHrP(1-28)NH] .
Result: 119

Request: If you can, please state the reported screen cAMP (% parent) value of A26-PTHrP(1-28) (AVSEHQLLHDKGKSIQDLRRRFFLHALI-NH2) [A26-PTHrP(1-28)NH] .
Result: 142

* * *

Exercise: state measured screen human PIR RG (% parent) for each of the substances provided.
Target: human PTHR, G protein-coupled conformation (RG) (Homo sapiens)
Construct: expressed in transfected cells; host or cells: COS-7, transient (Fugene-6); membranes
Sequence (Q03431 27-593): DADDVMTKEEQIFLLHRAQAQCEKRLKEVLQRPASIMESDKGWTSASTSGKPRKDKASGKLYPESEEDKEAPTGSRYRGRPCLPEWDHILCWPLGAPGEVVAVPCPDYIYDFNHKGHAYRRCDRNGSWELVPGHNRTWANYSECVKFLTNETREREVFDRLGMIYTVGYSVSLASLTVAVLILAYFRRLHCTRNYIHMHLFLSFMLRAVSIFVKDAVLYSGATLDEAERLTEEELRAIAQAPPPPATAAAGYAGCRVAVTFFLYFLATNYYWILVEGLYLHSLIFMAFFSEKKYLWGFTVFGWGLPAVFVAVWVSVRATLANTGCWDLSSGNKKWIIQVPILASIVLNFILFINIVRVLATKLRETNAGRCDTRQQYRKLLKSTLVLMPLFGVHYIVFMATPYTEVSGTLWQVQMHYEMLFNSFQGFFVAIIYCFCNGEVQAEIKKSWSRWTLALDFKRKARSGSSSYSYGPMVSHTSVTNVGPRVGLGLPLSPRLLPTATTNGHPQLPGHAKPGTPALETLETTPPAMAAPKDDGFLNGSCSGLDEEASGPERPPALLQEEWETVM
Test: Competition binding to RG conformation of hPTHR (COS-7 membranes, GαsND, 125I-[Aib1,3,M]PTH(1-15) tracer); also: test concentration or dose not given here
Details: parent PTHrP(1-28)NH
Ends that are not written are not given here.
Report only the number, with the unit % parent understood.

Request: If you can, please state the reported screen human PIR RG (% parent) value of A18,26,N22-PTHrP(1-28) (AVSEHQLLHDKGKSIQDARRRNFLHALI-NH2) [A18, 26, N22-PTHrP(1-28)NH] .
Result: 161

Request: If you can, please state the reported screen human PIR RG (% parent) value of E18,K22,26-PTHrP(1-28) (AVSEHQLLHDKGKSIQDERRRKFLHKLI-NH2) [E18, K22, 26-PTHrP(1-28)NH] .
Result: 208

Request: If you can, please state the reported screen human PIR RG (% parent) value of A18,W22,K26-PTHrP(1-28) (AVSEHQLLHDKGKSIQDARRRWFLHKLI-NH2) [A18, W22, K26-PTHrP(1-28)NH] .
Result: 115

Request: If you can, please state the reported screen human PIR RG (% parent) value of A18,26,S22-PTHrP(1-28) (AVSEHQLLHDKGKSIQDARRRSFLHALI-NH2) [A18, 26, S22-PTHrP(1-28)NH] .
Result: 148

Request: If you can, please state the reported screen human PIR RG (% parent) value of E18,N22,K26-PTHrP(1-28) (AVSEHQLLHDKGKSIQDERRRNFLHKLI-NH2) [E18, N22, K26-PTHrP(1-28)NH] .
Result: 147

Request: If you can, please state the reported screen human PIR RG (% parent) value of AVSEHQLLHDKGKSIQDARRRSFLHKLI [A18, S22, K26-PTHrP(1-28)NH, A18,S22,K26-PTHrP(1-28)] .
Result: 175

Request: If you can, please state the reported screen human PIR RG (% parent) value of E18,K22,A26-PTHrP(1-28) (AVSEHQLLHDKGKSIQDERRRKFLHALI-NH2) [E18, K22, A26-PTHrP(1-28)NH] .
Result: 192
